# TEST TARGET: T1, cynomolgus OX40 on cells (cynomolgus, UniProt P43489 29-277 (human entry))
# T1 construct: also called cynoOX40-CHO
# T1 chain: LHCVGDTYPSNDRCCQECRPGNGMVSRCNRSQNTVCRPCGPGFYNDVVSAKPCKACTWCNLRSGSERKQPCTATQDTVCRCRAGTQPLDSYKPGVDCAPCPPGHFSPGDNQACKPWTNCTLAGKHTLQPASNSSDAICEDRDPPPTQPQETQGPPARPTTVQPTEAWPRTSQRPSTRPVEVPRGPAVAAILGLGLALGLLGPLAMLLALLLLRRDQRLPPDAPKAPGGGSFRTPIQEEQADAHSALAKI
# EXPERIMENTAL DETAILS: FACS, activated cyno T cells; mean ± SD, n=4
ASSAY METRIC: pEC50
Scale note: pEC50 = -log10(concentration in M).

BINDER	RECORDED VALUE
3F4 (antibody, V domains shown, also called 3F4.G11.D2; 3F4.G11) VH: QVQLVQSGAEVKKPGASVKVSCKASGNTFTSYDVNWVRQATGQGLEWMGWMNPNSGNTGYAPKFQGRVTMTRNTSISTAYMELSSLRSEDTAVYYCARIYSSSYNWFDPWGQGTLVTVSS VL: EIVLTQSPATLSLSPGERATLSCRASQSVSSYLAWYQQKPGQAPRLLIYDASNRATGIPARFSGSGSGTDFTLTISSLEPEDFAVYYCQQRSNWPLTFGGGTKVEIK	9.43
23H3 (antibody, V domains shown, also called 23H3.C6) VH: EVQLVQSGGGLVHPGGSLRLSCAGSGFTFSNYAMYWVRQAPGKGLEWVSAIGIGGDTFYTDSVKGRFTISRDNAKNSLSLQMNSLRAEDMAVYYCARMGTGYFFDYWGQGTLVTVSS VL: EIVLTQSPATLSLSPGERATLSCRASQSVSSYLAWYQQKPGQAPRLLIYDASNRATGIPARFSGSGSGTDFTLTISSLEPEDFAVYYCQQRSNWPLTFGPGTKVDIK	9.74
20B3 (antibody, V domains shown, also called 20B3.G12.A2; 20B3.G2) VH: EVQLVESGGGLVQPGGSLRLSCAASGFTFSSYDMHWVRQTTGKGLEWVSVIGTAGDTYYPGSVKGRFTISRENAKNSLYLQMNSLRAGDTAVYYCARGGMGNYFDYWGQGTLVTVSS VL: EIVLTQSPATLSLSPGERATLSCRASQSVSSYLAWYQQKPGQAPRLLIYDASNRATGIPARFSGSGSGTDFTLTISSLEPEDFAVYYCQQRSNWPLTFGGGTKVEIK	8.93

Moving on to another binder below.
Which pEC50 value is on record for 20C1 (antibody, V domains shown, also called 20C1.F2.D1; 20C1.F2) VH: EAQLVQSGGGLVHPGGSLRLSCADSGFTFSSYAMYWVRQAPGKGLEWVSAIDTDGGTFYADSVRGRFTISRDNAKNSLYLQMNGLRAEDMAVYFCARLGEGYFFDYWGQGTLVTVSS VL: EIVLTQSPATLSLSPGERATLSCRASQSVSSYLAWYQQKPGQAPRLLIYDASNRATGIPARFSGSGSGTDFTLTISSLEPEDFAVYYCQQRSNWPPTFGGGTKVEIK ?
9.77
